Experiment: Displacement of […] from imidazoline I2 receptor in Sprague-Dawley rat kidney membranes after 45 mins by liquid scintillation counting
Assay type: cell membranes, Membrane
Entries and their log10 of Ki values follow.
parameter.measured: log10 of Ki (log10 of the value in µM)

>  <smiles.repr>
Fc1cccc2cnn(N=C3NCCN3)c12

>  <log10 of Ki>
2.54

$$$$
>  <smiles.repr>
Fc1cccc2c1cnn2CC1=NCCN1

>  <log10 of Ki>
-1.66

$$$$
>  <smiles.repr>
Fc1ccc2c(cnn2CC2=NCCN2)c1

>  <log10 of Ki>
-1.98

$$$$
>  <smiles.repr>
Fc1c(F)c(F)c2c(cnn2N=C2NCCN2)c1F

>  <log10 of Ki>
1.36

$$$$
>  <smiles.repr>
Fc1cccc2c1cnn2N=C1NCCN1

>  <log10 of Ki>
0.79

$$$$
>  <smiles.repr>
c1ccc2c(c1)cnn2N=C1NCCN1

>  <log10 of Ki>
1.23

$$$$
>  <smiles.repr>
Fc1ccc2cnn(CC3=NCCN3)c2c1

>  <log10 of Ki>
-2.09

$$$$
>  <smiles.repr>
Fc1ccc2c(cnn2N=C2NCCN2)c1

>  <log10 of Ki>
0.76

$$$$
>  <smiles.repr>
Fc1ccc2cnn(N=C3NCCN3)c2c1

>  <log10 of Ki>
1.34

$$$$

----------
Target: Alpha-2A adrenergic receptor (Homo sapiens, UniProt P08913)
Sequence (P08913 whole entry): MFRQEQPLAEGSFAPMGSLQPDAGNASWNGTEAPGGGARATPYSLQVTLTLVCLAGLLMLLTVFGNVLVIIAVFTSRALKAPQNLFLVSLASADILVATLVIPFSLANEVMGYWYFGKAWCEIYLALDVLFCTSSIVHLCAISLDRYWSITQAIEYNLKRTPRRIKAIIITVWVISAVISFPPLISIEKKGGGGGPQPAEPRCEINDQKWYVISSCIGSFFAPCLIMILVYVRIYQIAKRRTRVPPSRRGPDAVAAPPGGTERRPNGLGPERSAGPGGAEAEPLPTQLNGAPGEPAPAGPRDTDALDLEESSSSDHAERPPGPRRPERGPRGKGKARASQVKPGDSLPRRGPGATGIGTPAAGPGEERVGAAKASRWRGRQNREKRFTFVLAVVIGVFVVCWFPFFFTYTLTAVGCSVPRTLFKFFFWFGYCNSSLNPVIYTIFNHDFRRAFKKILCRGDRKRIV
Assay: Agonist activity at human alpha2A adrenoceptor expressed in CHO-K1 cells after 30 mins by [35S]GTPgammaS binding assay
parameter.measured: EC50 (nM)

>  <compound>
Fc1ccc2cnn(N=C3NCCN3)c2c1

>  <output.unit>
nM

>  <numeric.readout>
38.9

$$$$
>  <compound>
Fc1cccc2cnn(N=C3NCCN3)c12

>  <output.unit>
nM

>  <numeric.readout>
200

$$$$
>  <compound>
c1ccc2c(c1)cnn2N=C1NCCN1 [MARSANIDINE]

>  <output.unit>
nM

>  <numeric.readout>
93.3

$$$$

----------
Target: Nischarin (Rattus norvegicus)
Sequence (Q4G017 whole entry): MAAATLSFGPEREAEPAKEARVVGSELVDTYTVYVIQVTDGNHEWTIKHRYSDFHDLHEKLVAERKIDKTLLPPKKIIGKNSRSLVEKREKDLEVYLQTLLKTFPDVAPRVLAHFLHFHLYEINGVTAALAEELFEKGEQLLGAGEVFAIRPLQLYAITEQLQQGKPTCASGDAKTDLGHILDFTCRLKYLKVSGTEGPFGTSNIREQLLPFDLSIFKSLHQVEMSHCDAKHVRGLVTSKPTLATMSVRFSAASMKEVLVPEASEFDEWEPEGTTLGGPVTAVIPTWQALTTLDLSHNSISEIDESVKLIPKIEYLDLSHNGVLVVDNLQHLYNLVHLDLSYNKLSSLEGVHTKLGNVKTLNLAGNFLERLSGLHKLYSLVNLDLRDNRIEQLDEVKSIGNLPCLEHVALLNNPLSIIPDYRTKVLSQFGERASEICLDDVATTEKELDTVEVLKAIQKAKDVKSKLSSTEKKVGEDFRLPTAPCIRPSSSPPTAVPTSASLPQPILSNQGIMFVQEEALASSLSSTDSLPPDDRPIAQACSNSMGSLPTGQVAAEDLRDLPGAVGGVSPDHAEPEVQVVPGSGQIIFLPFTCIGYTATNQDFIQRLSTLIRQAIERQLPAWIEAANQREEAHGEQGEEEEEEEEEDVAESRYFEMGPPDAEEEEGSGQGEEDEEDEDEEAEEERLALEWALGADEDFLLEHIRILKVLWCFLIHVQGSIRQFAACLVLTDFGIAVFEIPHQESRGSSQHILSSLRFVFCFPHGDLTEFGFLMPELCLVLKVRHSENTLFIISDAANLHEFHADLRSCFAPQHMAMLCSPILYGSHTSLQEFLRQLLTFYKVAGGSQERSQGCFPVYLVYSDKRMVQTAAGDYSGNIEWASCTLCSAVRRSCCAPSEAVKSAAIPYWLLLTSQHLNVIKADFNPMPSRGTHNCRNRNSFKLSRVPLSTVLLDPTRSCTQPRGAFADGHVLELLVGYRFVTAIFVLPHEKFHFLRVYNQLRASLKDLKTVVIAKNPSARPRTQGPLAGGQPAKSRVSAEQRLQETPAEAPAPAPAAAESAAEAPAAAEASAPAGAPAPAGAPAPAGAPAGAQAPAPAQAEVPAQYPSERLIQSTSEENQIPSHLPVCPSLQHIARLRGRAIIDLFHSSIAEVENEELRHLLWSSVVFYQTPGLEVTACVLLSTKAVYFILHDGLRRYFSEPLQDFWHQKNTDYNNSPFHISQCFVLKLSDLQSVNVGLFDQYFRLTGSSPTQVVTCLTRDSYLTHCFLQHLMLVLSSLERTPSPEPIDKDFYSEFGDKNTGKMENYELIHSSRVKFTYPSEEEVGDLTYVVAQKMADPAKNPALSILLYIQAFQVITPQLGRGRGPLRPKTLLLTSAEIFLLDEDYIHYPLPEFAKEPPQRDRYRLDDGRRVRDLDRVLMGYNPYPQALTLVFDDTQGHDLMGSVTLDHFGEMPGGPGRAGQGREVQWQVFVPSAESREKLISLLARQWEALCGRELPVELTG
Assay: Displacement of […] from imidazoline I1 receptor in Sprague-Dawley rat kidney membranes after 45 mins by liquid scintillation counting
parameter.measured: log10 IC50 (log10 of the value in µM)

>  <smiles.repr>
Fc1ccc2cnn(N=C3NCCN3)c2c1

>  <numeric.readout>
1.32

$$$$
>  <smiles.repr>
Fc1ccc2c(cnn2N=C2NCCN2)c1

>  <numeric.readout>
-1.04

$$$$
>  <smiles.repr>
Fc1ccc2cnn(CC3=NCCN3)c2c1

>  <numeric.readout>
1.53

$$$$
>  <smiles.repr>
Fc1c(F)c(F)c2c(cnn2N=C2NCCN2)c1F

>  <numeric.readout>
0.77

$$$$
>  <smiles.repr>
Fc1cccc2c1cnn2CC1=NCCN1

>  <numeric.readout>
0.25

$$$$
>  <smiles.repr>
Fc1ccc2c(cnn2CC2=NCCN2)c1

>  <numeric.readout>
0.38

$$$$
>  <smiles.repr>
Fc1cccc2cnn(N=C3NCCN3)c12

>  <numeric.readout>
0.89

$$$$
>  <smiles.repr>
Fc1cccc2c1cnn2N=C1NCCN1

>  <numeric.readout>
1.17

$$$$
